The origin of these recorded values is the supplement of paper PMC12494721.

# Test system: Klebsiella aerogenes DSM 30053
# assay_procedure: fold change of Cadaverine concentration vs plate DMSO controls (fold change (ratio)); higher = more amine produced, active = hit call of the paper (significant change in both replicates, either direction)
# test_parameters: incubation time: 27 h, anaerobic, 37 °C
Where a name gives a salt, the structure may show the parent alone.
readout_name: fold change of Cadaverine concentration
// return a plain number; no unit text

Report measured fold change of Cadaverine concentration; entry is CC1=C(/C=C/C(C)=C/C=C/C(C)=C/C(=O)O)C(C)(C)CCC1 [Retinoic acid] (20 µM)
1.01

Item Cn1ccnc1S [Methimazole] (20 µM) : provide fold change of Cadaverine concentration
0.984

Note down fold change of Cadaverine concentration recorded for Nc1ccc(S(=O)(=O)Nc2nccs2)cc1 [Sulfathiazole] (20 µM)
1.01

Tell me its fold change of Cadaverine concentration given C[C@H](CCC(=O)O)[C@H]1CC[C@H]2[C@@H]3C(=O)C[C@@H]4CC(=O)CC[C@]4(C)[C@H]3CC(=O)[C@]12C [Dehydrocholic acid] (20 µM) as the entry.
1.01

For the compound Nc1ccc(S(N)(=O)=O)cc1 [Sulfanilamide] (20 µM) , give its measured fold change of Cadaverine concentration value.
1.03

Provide one value: measured fold change of Cadaverine concentration of CO/N=C(\C(=O)N[C@@H]1C(=O)N2C(C(=O)O)=C(COC(C)=O)CS[C@H]12)c1csc(N)n1 [Cefotaxime sodium salt] (20 µM)
1.02
